In this section we review reported melting point values for a set of molecules.

molecule | melting point
CC(C)n1nc(-c2sc(N)nc2-c2ccc(F)cc2)ccc1=O | 256 to 257 °C

Given the entry NC(=O)[C@@H]1C[C@H](C(=O)O)Nc2cc(Cl)cc(Cl)c21 (relative stereo) , report its measured melting point. 220 to 222 °C

Follow-up entry: COC(=O)COc1cccc2c1CCC(Cc1coc(C(c3ccccc3)c3ccccc3)n1)C2 (stereo not drawn) 91 to 93 °C

Follow-up entry: CCOC(=O)Cc1ccc(N(C)c2nc(=O)c3cccnc3s2)cc1 156 to 159 °C

Follow-up entry: CN(C)c1ccc(NC(=O)N(CC2CCCCC2)C[C@H]2CCCC[C@H]2CN(CC2CCCCC2)C(=O)Nc2ccc(N(C)C)cc2)cc1 102 to 106 °C

Follow-up entry: COc1cc(C#N)ccc1-c1cc2cc(Cl)c(Cl)cc2[nH]1 241 to 244 °C

Follow-up entry: Cc1cc(O)c(SCc2ccccc2F)c(=O)o1 123 to 125 °C

Follow-up entry: CC(C)(C)OC(=O)COc1cc(NC(=O)OC(C)(C)C)c([N+](=O)[O-])cc1I 103 °C

Follow-up entry: CCC1C(CC)N1S(=O)(=O)c1ccc(C)cc1 (stereo not drawn) 69 to 70 °C

Follow-up entry: CCOC(=O)/C=C/c1sc(-n2cnc3ccccc32)nc1C(C)C 229 to 230 °C

Follow-up entry: COC(=O)c1cnc(N2CCN(Cc3ccccc3)CC2)nc1C 38 to 40 °C

Follow-up entry: CC1(c2cc(-c3cccc(CC4SC(N5CCOCC5)=NC4=O)c3)ccc2O)CCCCC1 (stereo not drawn) 98 to 99 °C

Follow-up entry: NC(=O)c1nnn(Cc2cc(Cl)c(Sc3ccc(Cl)cc3)c(Cl)c2)c1N 180 to 182 °C

Follow-up entry: Nc1ncc(Cl)nc1Cl 117 to 118 °C

====

In this section we review reported melting point values for a set of compounds.

Here are 4 compounds together with their reported answers.
compound | meas.value
Nc1cc(O)nc(SCc2cccc(F)c2F)n1 | 218 to 221 °C
CCCCc1oc2ccccc2c1C(=O)Nc1ccc(-c2ccc(OCc3nnn[nH]3)cc2)cc1 | 210 to 212 °C
Cc1c(C)c2c(c(C)c1O)CCC(C)(CC(=O)O)O2 (centres undefined) | 168 to 171 °C
FC(F)(F)c1cc2[nH]c(N3CCN(c4ncccc4Cl)CC3)nc2cc1Cl | 209 to 211 °C

Given the entry CCOC(=O)C1=Cc2cc(Cl)cc(I)c2OC1C(F)(F)F (centres undefined) , report its measured melting point. 92.1 to 93.9 °C

Follow-up entry: CCCCc1nnc(SCC2CCCCC2)n1Cc1ccc(-c2ccccc2-c2nnn[nH]2)cc1 89 to 91 °C

Follow-up entry: CCOC(=O)C(=O)Nc1c([N+](=O)[O-])cc(C(C)=O)c2c1CCCC2 120 to 121 °C

Follow-up entry: CC(O)CCCCn1cnc2c1c(=O)n(C)c(=O)n2C (centres undefined) 93 to 94 °C

Follow-up entry: CNC(=O)c1ccccc1Nc1nc(Nc2cc3c(cc2OC)N(C)C(=O)OCC3)ncc1Cl 235 to 237 °C

====

property.name: melting point

Here are 6 molecules together with their reported answers.
molecule | meas.value
N#Cc1cc2sccc2nc1Cl | 222 to 224 °C
CN(C)c1ccc(CNC(=O)C(Cc2ccccc2)NC(=O)Nc2ccc(C(=N)N)cc2)cc1 (centres undefined) | 147 °C
CC#CCOc1ccc(SC(C(=O)NO)c2ccccc2OC)cc1 (centres undefined) | 172 to 173 °C
CC1(C)Oc2ccc(C#N)cc2[C@@H](N2CCCCC2=O)[C@@H]1O (relative stereo) | 155 °C
CCCC[C@]1(CC)CS(=O)(=O)c2cc(O)c(OC)cc2[C@@H](c2ccccc2)N1 | 165 to 166 °C
OCc1nc(Cl)cc(N2CCCC2)n1 | 90 to 93 °C

Given the entry COc1ccc(C(=O)Nc2ccc(Cl)c(Cl)c2)cc1NS(C)(=O)=O , report its measured melting point. 226 to 228 °C

Follow-up entry: NS(=O)(=O)c1cscc1C(=O)Cl 236 to 238 °C

Follow-up entry: C#Cc1cc2c(cc1C=O)C(C)(C)CCC2(C)C 94 to 94.6 °C

Follow-up entry: Cc1nccc(CO)c1OCc1ccccc1 130 to 131 °C

Follow-up entry: CCOC(=O)CCCc1ccc(Nc2ncc3cc(-c4c(Cl)cccc4Cl)c(=O)n(C)c3n2)cc1 169 to 170 °C

Follow-up entry: CCOC(=O)c1[nH]c2c(Cl)ccc(Cl)c2c1C 107 to 108 °C

Follow-up entry: CC(=O)Nc1ccc(S(=O)(=O)CCN2CCOCC2)cc1 136 to 137 °C

Follow-up entry: C=CCC(C)(C)C(O)C(c1cccc(OC)c1)n1ccnc1 (centres undefined) 83 °C

Follow-up entry: CC(=O)N(C)c1ccc(-c2ccnc3c(C(=O)c4ccco4)cnn23)cc1 202 to 204 °C

Follow-up entry: Cc1nc2ccc3nc(O)c(O)nc3c2nc1C > 300 °C

Follow-up entry: CC1OC(C)(C)c2cc(-c3ccc(C#N)n3C(=O)OC(C)(C)C)ccc2N1C(=O)OCC1c2ccccc2-c2ccccc21 (centres undefined) 135 to 136 °C

Follow-up entry: Cc1nc2c(c3c1[nH]c1ccc(F)cc13)C(=O)CC(C(C)C)C2 (centres undefined) 221 to 223 °C

Follow-up entry: Cc1cc(C)c([N+](=O)[O-])cc1N1CCC1=O 102 °C

Follow-up entry: CCOc1nn(C(=O)NS(=O)(=O)c2c(C)csc2C)c(=O)n1C 158 °C

Follow-up entry: CCC(CC)Nc1c(NCc2ccc(Cl)c(Cl)c2)c(=O)c1=O 268 to 269 °C

Follow-up entry: N#Cc1cc(-c2ccc(C(F)(F)F)cc2)ccc1-n1cc(-c2cc(F)cc(F)c2)nn1 229 to 230 °C

Follow-up entry: Cc1cc(=S)c(OCC(=O)O)co1 120 to 125 °C

Follow-up entry: S=c1[nH]c2ccc(Cl)cc2c2nc(-c3ccco3)nn12 202 to 207 °C
